Molecular target: GSTPH(GRP) (Mus musculus)
Construct: residues 239 to 399 (PH domain); made in house; host or cells: bacteria
Sequence (O08967 239-399): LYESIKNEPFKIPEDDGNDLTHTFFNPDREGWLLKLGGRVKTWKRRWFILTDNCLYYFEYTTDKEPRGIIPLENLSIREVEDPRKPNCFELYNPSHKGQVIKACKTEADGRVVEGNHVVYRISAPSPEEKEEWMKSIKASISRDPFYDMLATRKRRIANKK
Assay: Competition of [32P]PI(3,4,5)P3 binding to GST-PH by inositol phosphate head groups
Set-up: species or system murine
Conditions: 100 μM competitor
VALUE_KIND: inhibition of [^32 P]PI(3,4,5)P3 binding to GST-PH(GRP)

[[record]]
compound = "O=P(O)(O)O[C@@H]1[C@H](O)[C@H](O)[C@@H](OP(=O)(O)O)[C@H](OP(=O)(O)O)[C@H]1O [Ins(1,4,5)P3, D-myo-inositol 1,4,5 trisphosphate]"
value_observed = "little or no effect"

[[record]]
compound = "O=P(O)(O)O[C@@H]1[C@@H](O)[C@H](OP(=O)(O)O)[C@@H](OP(=O)(O)O)[C@@H](O)[C@H]1OP(=O)(O)O"
value_observed = "little or no effect"

[[record]]
compound = "O=P(O)(O)O[C@H]1[C@H](OP(=O)(O)O)[C@@H](OP(=O)(O)O)[C@H](O)[C@@H](O)[C@H]1OP(=O)(O)O (relative stereo)"
value_observed = "little or no effect"

